System: IL10 secretion by TMD8 ABC-DLBCL cells
Experiment: Human IL10 Mesoscale assay (TMD-8)
Format: cell-based
Settings: Homo sapiens, TMD8; TMD-8 cells, 24 h
PROPERTY MEASURED: IC50 (nM)

Examples with answers:
CN(C)c1ncc(-n2ncc(C(=O)Nc3cnc(-n4nccn4)c(Cl)c3)c2C(F)(F)F)c2ccccc12 [Cpd 322]: 708
N#Cc1cc(NC(=O)c2cnn(-c3cccc4ncccc34)c2C(F)(F)F)ccc1C(=O)O [Cpd 237]: 182

A. N#Cc1cc(NC(=O)c2cnn(-c3nccn4nccc34)c2C(F)(F)F)cnc1-n1nccn1 [Cpd 425]
B. N#Cc1cc(NC(=O)c2cnn(-c3cccc4nc(N)nn34)c2C(F)(F)F)cnc1-n1nccn1 [Cpd 159]
Incoming: Of A and B , whose reported IC50 is numerically smaller? Which one? Tell me its label.
Outgoing: A

a. Cc1nc(-n2cccn2)c(Cl)cc1NC(=O)c1cnn(-c2cccc3nnsc23)c1C(F)(F)F [Cpd 303]
b. N#Cc1ncc(NC(=O)c2cnn(-c3cncc4ccccc34)c2C(F)(F)F)cc1C(F)(F)F [Cpd 49]
Incoming: Of a and b , whose reported IC50 is numerically smaller? Which one? Tell me its label.
Outgoing: b
(b: 76 nM, a: 174 nM)
